Recorded measurements of O2 uptake (% of control), one per entry
# System: alternative oxidase (AOX)
# testName: AOX inhibitors, oxygen consumption, profiling panel (AID 1259412)
# conditionSummary: AOX-dependent respiration, at 500 µM, stronger effect = lower value
The answer is to be given in %; state only the numeric part.

Below, each entry is followed by its recorded O2 uptake (% of control) result.
structureNotation	testedTarget	unitOfMeasure	measured
NC(=O)c1ccccc1NC(=O)c1cccc(Cl)c1	alternative oxidase (AOX)	%	41.6
O=C(Nc1cccc([N+](=O)[O-])c1)c1cccc(F)c1	alternative oxidase (AOX)	%	44.8
COc1cccc(C(=O)Nc2cccc(C(F)(F)F)c2)c1	alternative oxidase (AOX)	%	37.6
O=C(Nc1cccc(NC(=O)c2cccc(I)c2)c1)c1cccc(I)c1	alternative oxidase (AOX)	%	89
NC(=O)c1ccccc1NC(=O)c1ccccc1	alternative oxidase (AOX)	%	91.2

Next compound, please.
Prompt line: Please give the measured O2 uptake (% of control) for this compound: `Nc1cccc(S(=O)(=O)c2cccc(NC(=O)c3ccccc3)c2)c1`
Response line: 98.2
